Cited source for all entries: patent US20210032351A1

EXPERIMENTAL TARGET: T1, biotin-labeled recombinant EGFRvIII protein (UniProt P00533 25-645, biotin-labeled)
T1 construct: the construct is not described
ASSAY METHOD TEXT: competitive ELISA; competitor Murine anti-7E5
OUTCOME MEASURE: competition rate (%)
Give your result in % as a bare value.

What competition rate value was documented for this binder, Murine anti-7E5 (antibody, V domains shown, Mouse hybridoma antibody; also called 7E5-2A9; murine anti-7E5-2) VH: EIQLQQSGPELVKPGASVKVSCKASGYSFTDYNMYWVKQSHGKSLEWIGYVDPSNGGTNYNQKFKGKATLTVDKSSSTAFMHLNSLTSEDSAVYYCARGFFDYWGQGTTLTVSS VL: DIVMTQSPSSLTVTAGEKVTMSCKSSQSLLNSGNQKNYLTWYQQKPGQPPKLLIYWASNRESGVPDRFTGSGSGKDFTLTISSVQAEDLAVYYCQNDYRYPVTFGAGTKLELK ?
85
